Value source: patent EP4644391A1

Parameter pIC50: see the listing below.
system: human Burkitt's lymphoma cell Raji; assay: In vitro anticancer activity test (MTT cell proliferation assay); assay type: cell-based
pIC50: −log10 of the molar value.
assay readout: pIC50

[
  {
    "smiles text": "O=C(O)c1cn(C2CC2)c2cc(N3CCNCC3)c(F)cc2c1=O",
    "assay target": "human Burkitt's lymphoma cell Raji",
    "observed value": "< 4.00"
  },
  {
    "smiles text": "CCN(CC)CCNC(=O)c1c(C)[nH]c(/C=C2\\C(=O)Nc3ccc(F)cc32)c1C",
    "assay target": "human Burkitt's lymphoma cell Raji",
    "observed value": 4.69
  },
  {
    "smiles text": "O=C(O)c1cn(C2CC2)c2c(Cl)c(-c3ccc(S(=O)(=O)NCCCC(F)(F)F)nc3)c(F)cc2c1=O",
    "assay target": "human Burkitt's lymphoma cell Raji",
    "observed value": "5.00 to 6.00"
  }
]

---

System: E. coli ATCC 25922
Assay: In vitro antibacterial activity assay (MIC, broth dilution)
Format: cell-based
Settings: Escherichia coli, ATCC25922; Table 3; read-out: E. coli ATCC 25922 MIC
From the text: The method used to indicate the activity of the compounds in this example is to record the minimum inhibitory concentration (MIC) of the compounds against bacteria. The specific experimental method is as follows: • 1. […] Results reading: the minimum inhibitory concentration is the minimum drug concentration at which no bacterial growth is visible to the naked eye and without turbidity.
Parameter MIC: see the listing below.

[
  {
    "compound": "CCCCCCCNS(=O)(=O)c1ccc(-c2cc3c(cc2F)c(=O)c(C(=O)O)cn3-c2ccc(F)cc2)cc1 [Example 12]",
    "MIC": "≥ 1 µg/mL"
  },
  {
    "compound": "CCCCCCCNS(=O)(=O)c1ccc(-c2cc3c(cc2F)c(=O)c(C(=O)O)cn3C2CC2)cc1 [Example 101]",
    "MIC": "≥ 1 µg/mL"
  },
  {
    "compound": "COc1c(-c2ccc(N)c([N+](=O)[O-])c2)c(F)cc2c(=O)c(C(=O)NO)cn(C3CC3)c12 [Example 138]",
    "MIC": "≥ 1 µg/mL"
  }
]
